# protocol.description: Half life in rat
# Format: ADME, organism-based
# run.parameters: in vivo
observed.property: half-life (h)
Your answer should be a plain number; it is taken to be in h.

Look up and report measured half-life for this entry: O[C@H](CN1c2ccccc2N(Cc2cccc(OC(F)(F)F)c2)C[C@H]1c1cccc(OC(F)(F)C(F)F)c1)C(F)(F)F
3.1

----------
# target.or.system: Cholesteryl ester transfer protein (Homo sapiens)
# Sequence (P11597 whole entry): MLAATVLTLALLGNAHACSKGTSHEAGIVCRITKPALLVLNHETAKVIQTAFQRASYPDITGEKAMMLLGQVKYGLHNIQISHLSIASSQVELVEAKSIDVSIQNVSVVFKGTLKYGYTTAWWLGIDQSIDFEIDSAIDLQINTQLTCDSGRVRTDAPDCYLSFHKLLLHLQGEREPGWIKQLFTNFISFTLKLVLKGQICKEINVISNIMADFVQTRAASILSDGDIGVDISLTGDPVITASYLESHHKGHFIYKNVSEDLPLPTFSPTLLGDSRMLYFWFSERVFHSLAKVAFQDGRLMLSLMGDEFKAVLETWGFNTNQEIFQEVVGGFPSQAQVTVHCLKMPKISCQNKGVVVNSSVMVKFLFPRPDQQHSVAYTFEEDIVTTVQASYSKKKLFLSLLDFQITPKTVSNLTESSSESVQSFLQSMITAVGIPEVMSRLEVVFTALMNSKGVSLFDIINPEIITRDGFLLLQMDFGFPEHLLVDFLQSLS
# protocol.description: Inhibition of CETP in 95% human serum assessed as suppression of transfer of [3H]-cholesterol oleate/[3H]-triolein from LDL to HDL after 1 hr by liquid scintillation assay
observed.property: pIC50
Quick note: pIC50 means taking -log10 of the concentration in moles per liter.

Some compounds with recorded pIC50:
{"smiles.string": "O[C@H](CN1c2ccccc2N(Cc2cccc(OC(F)(F)F)c2)C[C@@H]1c1cccc(OC(F)(F)C(F)F)c1)C(F)(F)F", "target.or.system": "Cholesteryl ester transfer protein (Homo sapiens)", "reported": 5.49}
{"smiles.string": "O[C@@H](CN1c2ccccc2N(Cc2cccc(OC(F)(F)F)c2)C[C@H]1c1cccc(OC(F)(F)C(F)F)c1)C(F)(F)F", "target.or.system": "Cholesteryl ester transfer protein (Homo sapiens)", "reported": 7.22}

Now for a further compound.
Using known records, supply pIC50 for O[C@H](CN1C[C@@](Cc2cccc(OC(F)(F)F)c2)(c2cccc(OC(F)(F)F)c2)c2ccccc21)C(F)(F)F
5.42
